EXPERIMENT DESCRIPTION: Solubility in simulated gastric fluid (SGF), HPLC
Format: physicochemical
EXPERIMENTAL CONTEXT: simulated gastric fluid (SGF), simulated gastric fluid, thermodynamic from solid; SGF, equilibrated for 1 h at 37° C.
READOUT KIND: solubility at 1 h (µg/mL)
Supply the numeric figure in µg/mL, leaving out any unit text.

Given CC(C)c1cc(Oc2c(Cl)cc(-n3nc(C#N)c(=O)[nH]c3=O)cc2Cl)n[nH]c1=O [Form CSVI] , respond with its solubility at 1 h.
2.1
